Ref: patent US5346897A

Assay: in vitro
Format: cell-based, Chinese hamster
Settings: hamster, auxb1 cho cells

itemSmiles: CCOC(=O)/C=C/c1cccc(/C(=C/CN2CCCC2)c2ccc(C)cc2)n1
viability at 96 h, 1 µM: 92%

###

Assay: in vitro
Format: cell-based, Chinese hamster
Details: hamster, auxb1 cho cells

itemSmiles: CCOC(=O)/C=C/c1cccc(/C(=C/CN2CCCC2)c2ccc(C)cc2)n1
viability at 96 h, 10 µM [%]: 93

###

Experiment: in vitro
Details: human, kb 3-1 cells

itemSmiles: CCOC(=O)/C=C/c1cccc(/C(=C/CN2CCCC2)c2ccc(C)cc2)n1
unitOfMeasurement: %
viability at 96 h, 10 µM: 37
